biological target: human CB1 receptor (Homo sapiens, UniProt P21554); construct: purchased Perkin-Elmer; assay: hCB1 GTPγS binding; assay type: biochemical
Sequence (P21554 whole entry): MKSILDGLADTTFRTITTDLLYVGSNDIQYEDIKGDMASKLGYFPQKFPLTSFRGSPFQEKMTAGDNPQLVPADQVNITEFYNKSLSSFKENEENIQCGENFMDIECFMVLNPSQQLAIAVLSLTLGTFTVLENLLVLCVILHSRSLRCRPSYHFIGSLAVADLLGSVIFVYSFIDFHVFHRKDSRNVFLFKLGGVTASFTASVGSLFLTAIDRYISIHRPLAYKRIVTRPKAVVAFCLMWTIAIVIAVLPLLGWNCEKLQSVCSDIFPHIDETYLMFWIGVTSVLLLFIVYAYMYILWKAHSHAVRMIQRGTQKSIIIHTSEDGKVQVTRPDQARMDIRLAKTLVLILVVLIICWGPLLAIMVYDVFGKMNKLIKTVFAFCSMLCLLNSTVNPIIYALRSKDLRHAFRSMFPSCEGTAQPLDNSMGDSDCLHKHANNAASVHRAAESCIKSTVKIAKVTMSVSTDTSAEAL
property: EC50 (nM)

> print(dat)
                                   compound                                 tested.on  property  assay.value
1  O=C(NCC1CCC1)c1nc(OCc2ccccn2)ccc1NC(=O)c1ccc(Cn2ccnn2)c2ccccc12  human CB1 receptor (Homo sapiens, UniProt P21554)      EC50          7.3
2  COCc1cnnn1Cc1ccc(C(=O)Nc2cccnc2C(=O)NCC2CCC2)c2ccccc12  human CB1 receptor (Homo sapiens, UniProt P21554)      EC50           22
3  O=C(COc1ccc(NC(=O)c2ccc(Cn3ccnn3)c3ccccc23)c(C(=O)NCC2CCC2)n1)NCCO  human CB1 receptor (Homo sapiens, UniProt P21554)      EC50          120
4  O=C(NCC1CCC1)c1ncccc1NC(=O)c1ccc(Cn2cc(F)nn2)c2ccccc12  human CB1 receptor (Homo sapiens, UniProt P21554)      EC50           46
5  O=C(COc1ccc(NC(=O)c2ccc(Cn3ccnn3)c3ccccc23)c(C(=O)NCC2CCC2)n1)NCc1ccccc1  human CB1 receptor (Homo sapiens, UniProt P21554)      EC50           42
6  COCc1ccc(C(=O)Nc2ccc(OCCO)nc2C(=O)NCC2CCOCC2)c2ccccc12  human CB1 receptor (Homo sapiens, UniProt P21554)      EC50           99
7  CN(C)C(=O)COc1ccc(NC(=O)c2ccc(Cn3ccnn3)c3ccccc23)c(C(=O)NCC2CCC2)n1  human CB1 receptor (Homo sapiens, UniProt P21554)      EC50           80
8  O=C(NCC1CCOCC1)c1nc(OS(=O)(=O)CCC(F)(F)F)cnc1NC(=O)c1ccc(Cn2ccnn2)c2ccccc12  human CB1 receptor (Homo sapiens, UniProt P21554)      EC50          240
9  CC(C)OC(=O)COc1ccc(NC(=O)c2ccc(Cn3ccnn3)c3ccccc23)c(C(=O)NCC2CCC2)n1  human CB1 receptor (Homo sapiens, UniProt P21554)      EC50          7.1
